- targetOfAssay: T1, CD20 (human CD20) (human, UniProt P11836 1-297)
- T1 construct: whole, on cells; The cell line for each value is named under assay
- T1 sequence (looked up): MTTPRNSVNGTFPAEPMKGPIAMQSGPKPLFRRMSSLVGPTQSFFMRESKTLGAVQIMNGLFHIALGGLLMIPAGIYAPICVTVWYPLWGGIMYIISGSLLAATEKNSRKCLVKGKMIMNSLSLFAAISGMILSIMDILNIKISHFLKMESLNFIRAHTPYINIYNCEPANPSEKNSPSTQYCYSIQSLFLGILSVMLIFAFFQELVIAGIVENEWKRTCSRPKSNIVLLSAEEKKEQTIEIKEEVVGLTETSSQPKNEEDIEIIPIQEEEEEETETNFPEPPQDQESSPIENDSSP
- assayText: flow cytometry, purified IgG at 10 nM on Raji cells (CD20+), FITC-LC detection, ratio over negative control
measurementLabel: Raji Cell Binding FON (Fold Over Negative) (fold)

binder	unitsLabel	recordedValue
Ab1 (Exemplary Antibody Sequences 1), anti-CD20 antibody (antibody, V domains shown) VH: QVQLQQWGAGLLKPSETLSLTCAVYGGSFSGYYWSWIRQPPGKGLEWIGEIDHSGSTNYNPSLKSRVTISVDTSKNQFSLKLSSVTAADTAVYYCARGGGSWYSNWFDPWGQGTMVTVSS VL: DIQMTQSPSTLSASVGDRVTITCRASQSISSWLAWYQQKPGKAPKLLIYDASSLESGVPSRFSGSGSGTEFTLTISSLQPDDFATYYCQQDRSLPPTFGGGTKVEIK	fold	266
Ab5 (Exemplary Antibody Sequences 5), anti-CD20 antibody (antibody, V domains shown) VH: QVQLQESGPGLVKPSETLSLTCTVSGGSISSPDHYWGWIRQPPGKGLEWIGSIYASGSTFYNPSLKSRVTISVDTSKNQFSLKLSSVTAADTAVYYCARETDYSSGMGYGMDVWGQGTTVTVSS VL: DIQMTQSPSSLSASVGDRVTITCRASQSINSYLNWYQQKPGKAPKLLIYAASSLQSGVPSRFSGSGSGTDFTLTISSLQPEDFATYYCQQSLADPFTFGGGTKVEIK	fold	185
Ab3 (Exemplary Antibody Sequences 3), anti-CD20 antibody (antibody, V domains shown) VH: QLQLQESGPGLVKPSETLSLTCTVSGGSISSSSYYWGWIRQPPGKGLEWIGSIYYSGSTYYNPSLKSRVTISVDTSKNQFSLKLSSVTAADTAVYYCARETDYSSGMGYGMDVWGQGTTVTVSS VL: DIQMTQSPSSLSASVGDRVTITCRASQSINSYLNWYQQKPGKAPKLLIYAASSLQSGVPSRFSGSGSGTDFTLTISSLQPEDFATYYCQQSLADPFTFGGGTKVEIK	fold	316
Ab6 (Exemplary Antibody Sequences 6), anti-CD20 antibody (antibody, V domains shown) VH: QITLKESGPTLVKPTQTLTLTCTFSGFSLDTEGVGVGWIRQPPGKALEWLALIYFNDQKRYSPSLKSRLTITKDTSKNQVVLTMTNMDPVDTAVYYCARDTGYSRWYYGMDVWGQGTTVTVSS VL: DIQMTQSPSSVSASVGDRVTITCRASQGISSWLAWYQQKPGKAPKLLIYAASSLQSGVPSRFSGSGSGTDFTLTISSLQPEDFATYYCQQAYAYPITFGGGTKVEIK	fold	13
